# target: Y2 receptors (Homo sapiens)
# Construct: endogenous in cells; host or cells: KAN-Ts cells (membranes)
# Sequence (P49146 whole entry): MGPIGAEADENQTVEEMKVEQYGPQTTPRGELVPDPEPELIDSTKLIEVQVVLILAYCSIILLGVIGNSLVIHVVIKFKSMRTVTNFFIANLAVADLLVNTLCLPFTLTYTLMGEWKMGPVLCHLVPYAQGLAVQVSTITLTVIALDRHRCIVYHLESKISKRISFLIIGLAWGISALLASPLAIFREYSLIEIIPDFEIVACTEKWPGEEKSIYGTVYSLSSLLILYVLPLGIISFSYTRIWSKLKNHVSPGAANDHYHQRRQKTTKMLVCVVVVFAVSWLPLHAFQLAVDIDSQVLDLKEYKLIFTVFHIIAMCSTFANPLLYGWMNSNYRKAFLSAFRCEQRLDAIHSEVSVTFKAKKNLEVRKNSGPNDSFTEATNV
# protocol: Radioligand binding assay ([125I]PYY, KAN-Ts cell membranes)
# setupConditions: Table 1, [125I]PYY 80 pM, average of results, read-out: IC50
pIC50: −log10 of the molar value.
Assign yes whenever pIC50 does not fall below 6; assign no whenever it does.

- compound: "CCc1ccccc1C(=O)Nc1ccc(N2CCN(C(C(=O)OC)c3ccccc3)CC2)c(F)c1 (stereo not shown)"
  cat: "yes"
- compound: "CCNC(=O)C(c1ccccc1)N1CCN(c2ccc(NC(=O)CN3CCN(C(C)C)CC3)cc2F)CC1 (stereo not shown)"
  cat: "no"
- compound: "CCC(CC)C(=O)Nc1ccc(N2CCN(C(C(=O)OC)c3cc(F)cc(F)c3)CC2)c(F)c1 (stereo not shown)"
  cat: "yes"
- compound: "COC(=O)C(c1ccccc1)N1CCN(c2ccc(NC(=O)c3cccnc3)cc2)CC1 (stereo not shown)"
  cat: "no"
- compound: "CCN(CC)C(=O)C(c1ccccc1)N1CCN(c2ccc(NC(=O)C3(c4ccccc4)CCCC3)cc2F)CC1 (stereo not shown)"
  cat: "yes"
- compound: "CCCC(CCC)C(=O)Nc1ccc(N2CCC(C(C(=O)NCC)c3ccccc3)CC2)c(F)c1 (stereo not shown)"
  cat: "yes"
- compound: "CCC(CC)C(=O)Nc1ccc(N2CCN(C(C(=O)OC)c3ccccc3)CC2)cc1 (stereo not shown)"
  cat: "yes"
- compound: "CCNC(=O)C(c1ccccc1)C1CCN(c2ccc(NC(=O)Cc3c(C)noc3C)cc2F)CC1 (stereo not shown)"
  cat: "yes"
- compound: "COC(=O)C(c1ccccc1)N1CCN(c2ccc(NC(=O)c3ccc[nH]3)cc2)CC1 (stereo not shown)"
  cat: "no"
- compound: "CCNC(=O)C(c1ccccc1)C1CCN(c2ccc(NC(=O)C(CC)CC)cc2C#N)CC1 (stereo not shown)"
  cat: "yes"

Data request: Has COC(=O)C(c1ccccc1)N1CCN(c2ccc(NC(=O)c3ccccc3)cc2F)CC1 (stereo not shown) a recorded pIC50 greater than or equal to 6?
Data returned: no

Data request: Has CCC(CC)NC(=O)c1ccc(N2CCN(C(C(=O)OC)c3ccccc3)CC2)c(F)c1 (stereo not shown) a recorded pIC50 greater than or equal to 6?
Data returned: no

Data request: Has COC(=O)C(c1ccccc1)N1CCN(c2ccc(NC(=O)c3ccccc3)cc2)CC1 (stereo not shown) a recorded pIC50 greater than or equal to 6?
Data returned: no

Data request: Has CCNC(=O)C(c1ccccc1)C1CCN(c2ccc(NC(=O)CC3CCCCC3)cc2F)CC1 (stereo not shown) a recorded pIC50 greater than or equal to 6?
Data returned: no

Data request: Has CCC(CC)NC(=O)c1ccc(N2CCN(C(C(=O)OC)c3ccccc3)CC2)cc1 (stereo not shown) a recorded pIC50 greater than or equal to 6?
Data returned: no
